Each recorded value in this set is attributed to the SangsterLogP compilation.

assay.method.text: method code RP-HPLC, from DOI: 10.1016/s0045-6535(96)00355-4
Assign labels as follows, please: Fulfilled for logP below 2; Not fulfilled for logP equal to or exceeding 2.

Exercise: Does the reported logP of the following molecule sit strictly below 2? `CCNc1nc(NC(C)C)nc(OC)n1`
Solution: Not fulfilled

Exercise: Does the reported logP of the following molecule sit strictly below 2? `CCNc1nc(N)nc(Cl)n1`
Solution: Fulfilled

Exercise: Does the reported logP of the following molecule sit strictly below 2? `CC(C)N(C(=O)CCl)c1ccccc1`
Solution: Not fulfilled

Exercise: Does the reported logP of the following molecule sit strictly below 2? `CCC(CC)Nc1c([N+](=O)[O-])cc(C)c(C)c1[N+](=O)[O-]`
Solution: Not fulfilled

Exercise: Does the reported logP of the following molecule sit strictly below 2? `OC(c1ccc(Cl)cc1)(c1ccc(Cl)cc1)C(Cl)(Cl)Cl`
Solution: Not fulfilled

Exercise: Does the reported logP of the following molecule sit strictly below 2? `CCNc1nc(NC(C)(C)C)nc(OC)n1`
Solution: Not fulfilled
